# System: Leukemia K562 cell
# test-details: Leukemia K562 cell proliferation/viability assay (CellTiterGlo, 48 hours)
# Format: cell-based
# Set-up: unit not given here
# condition-description: K562 cells
property-name: Efficacy
API note: the answer field is a bare number with no unit suffix.

In [3]: df
Out[3]:
                                   compound  recorded_result
0  O=C(O)c1ccc2c(c1)C(=O)Nc1cc(OC(F)(F)F)ccc1O2 [NCGC00387752]              0.0
1  O=C1Nc2cc(OC(F)(F)F)ccc2Oc2ccc(CCCB(O)O)cc21 [NCGC00390142]           −103.4
2  O=C1Nc2cc(OC(F)(F)F)ccc2Sc2ccc(-c3ccnc(N4CCOCC4)c3)cc21 [NCGC00482456]            −85.7
3  CS(=O)(=O)Nc1cccc(-c2ccc3c(c2)Oc2ccc(OC(F)(F)F)cc2C(=O)N3)c1 [NCGC00384295]            −80.6
4  Nc1cc(-c2ccc3c(c2)C(=O)Nc2cc(OC(F)(F)F)ccc2O3)ccn1 [NCGC00373061]            −87.0

Input: Field request: Efficacy | item: N#CCCn1cc(-c2ccc3c(c2)C(=O)Nc2cc(OC(F)(F)F)ccc2O3)cn1 [NCGC00387293]
Output: −84.4

Input: Next compound: CS(=O)(=O)Nc1ccc(-c2ccc3c(c2)C(=O)Nc2cc(OC(F)(F)F)ccc2O3)cc1 [NCGC00356666]
Output: −79.9

Input: Consider next the compound NC(=O)c1cccc(-c2cc(Nc3ccc(OC(F)(F)F)cc3)ncn2)c1 [GNF-2] in the same way.
Output: −85.2

Input: Consider next the compound O=C1Nc2cc(OC(F)(F)F)ccc2Oc2ccc(-c3ccncc3)cc21 [NCGC00371309] in the same way.
Output: −77.6

Input: Similarly, CS(=O)(=O)Nc1cccc(-c2ccc3c(c2)Oc2cc(OC(F)(F)F)ccc2NC3=O)c1 [NCGC00384296] ?
Output: −73.3

Input: Try O=C1Nc2cc(OC(F)(F)F)ccc2Oc2ccc(-c3ccnc4[nH]ccc34)cc21 [NCGC00373059] next.
Output: −52.9

----------
# Tested on: Leukemia K562 cell
# test-details: Leukemia K562 cell proliferation/viability assay (CellTiterGlo, 48 hours)
# Type: cell-based
# Set-up: unit not given here
# condition-description: K562 cells
property-name: Efficacy
Field format: numeric only.

Examples from the recorded data:
In [3]: df
Out[3]:
                         chemical_structure  recorded_result
0  O=C1Nc2cc(OC(F)(F)F)ccc2Oc2ccc(-c3cccc(-c4ccn[nH]4)c3)cc21            −84.3
1  NC(=O)Cn1cc(-c2ccc3c(c2)C(=O)Nc2cc(OC(F)(F)F)ccc2O3)cn1             −8.8
2  O=C1Nc2cc(OC(F)(F)F)ccc2Oc2ccc(-c3cccc(S(=O)(=O)NCCO)c3)cc21           −103.3

Let's switch to this compound now.
Input: What value of Efficacy has been reported for the following compound? "O=C1Nc2cc(OC(F)(F)F)ccc2Oc2ccc(-c3ccc4[nH]ncc4c3)cc21"
Output: −74.3

----------
# Test system: Leukemia K562 cell
# test-details: Leukemia K562 cell proliferation/viability assay (CellTiterGlo, 48 hours)
# Type: cell-based
# Design: unit not given here
# condition-description: K562 cells
molecules and their reported Efficacy
// no unit string in output, number only

Input: Item under review: CC(C)(O)Cn1cc(-c2ccc3c(c2)C(=O)Nc2cc(OC(F)(F)F)ccc2O3)cn1 [NCGC00387294] . Reported Efficacy?
Output: −82.3

Input: CN(C)S(=O)(=O)c1cccc(-c2ccc3c(c2)C(=O)Nc2cc(OC(F)(F)F)ccc2O3)c1 [NCGC00373057] ?
Output: −85.1

Input: Can you check O=C1Nc2cc(OC(F)(F)F)ccc2Oc2ccc(B(O)O)cc21 [NCGC00387437] next?
Output: −82.6

Input: And CN1C(=O)c2cc(-c3cccc(N(C)S(C)(=O)=O)c3)ccc2Oc2ccc(OC(F)(F)F)cc21 [NCGC00384286] ?
Output: −54.6

Input: Entry CS(=O)(=O)Nc1cccc(-c2ccc3c(c2)C(=O)Nc2cc(OC(F)(F)F)ccc2O3)c1 [NCGC00356665] please
Output: −83.8

Input: Now try O=C1Nc2cc(OC(F)(F)F)ccc2Oc2ccc(-c3cncnc3)cc21 [NCGC00371310] .
Output: −15.0

Input: Also, O=C1Nc2cc(OC(F)(F)F)ccc2Oc2ccc(-c3cccnc3)cc21 [NCGC00371308] please.
Output: −7.0

Input: Check O=C1Nc2cc(OC(F)(F)F)ccc2Oc2ccc(-c3ccnc(N4CCNCC4)c3)cc21 [NCGC00373060] too.
Output: −99.1

These entries and their values trace back to patent US11649218B2.
